Biological target: T1, hK1 (human tissue kallikrein 1), recombinant (human, UniProt P06870 25-262)
T1 construct: Expressed in P. pastoris from KLK1 cDNA and purified; enzymatically active; also called KLK1; Recombinant (Pichia) Kallikrein
Experiment: SPR

- BINDER: "M0104-A12 (Fab, V domains shown) VH: EVQLLESGGGLVQPGGSLRLSCAASGFTFSHYNMGWVRQAPGKGLEWVSRIGSSGGKTAYADSVKGRFTISRDNSKNTLYLQMNSLRAEDTAVYYCAKTNYDFWSGYLPNPNPYPLDYWGQGTLVTVSS VL: DIQMTQSPSSLSASVGDRVTITCRASQSIGASLNWYQQKPQKAPKLLIYTASNLQSGVPSRFSGSGSGTDFTLTISSLLPEDFATYYCQQNYRGRTFGQGTKLEIKR"
  kon: "673000 M⁻¹ s⁻¹"
- BINDER: "M0097-E07 (Fab, V domains shown) VH: EVQLLESGGGLVQPGGSLRLSCAASGFTFSWYQMMWVRKAPGKGLEWVSYIRSSGGKTDYADSVKGRFTISRDNSKNTLYLQMNSLRAEDTAVYYCARVGVWYGMDVWGQGTTVTVSS VL: DIQMTQSPSSLSASVGDRVTITCRASQSISSYLSWFQQRPGKAPKLLIYSASNLQSGVPLRFSGSGSGTDFTLTISSLQPEDFATYYCQQIYRTPLTFGGGTKVEIKR"
  kon: "585000 M⁻¹ s⁻¹"
- BINDER: "M0138-E12 (Fab, V domains shown) VH: EVQLLESGGGLVQPGGSLRLSCAASGFTFSWYVMRWVRQAPGKGLEWVSSIYPSGGQTRYADSVKGRFTISRDNSKNTLYLQMNSLRAEDTAMYYCATGYSSTWGAFDIWGQGTMVTVSS VL: AQSALTQPASVSGSPGQSITISCSGTSSDVGAYYHVSWYQQHPGKAPKLMIYEVTNRPSGISNRFSGSKSGNTASLTISGLQADDEADYFCSSYTTSNTLVFGGGTKVTVLG"
  kon: "148000 M⁻¹ s⁻¹"
- BINDER: "M0137-E01 (Fab, V domains shown, also called M137-E01) VH: EVQLLESGGGLVQPGGSLRLSCAASGFTFSRYSMTWVRQAPGKGLEWVSSIYPSGGKTTYADSVKGRFTISRDNSKNTLYLQMNSLRAEDTAVYYCASMVAPYYYDSSGYPPAEYFQHWGQGTLVTVSS VL: AQSELTQPPSASGTPGQRVTISCSGTNSNIGSNSVFWYQQLSGTAAPKVLILRNSQRPSGVSDRFSGSKSGTSASLAISGLRSEDEADYYCATWDDSLRSPVFGGGTKLTVLG"
  kon: "123000 M⁻¹ s⁻¹"
- BINDER: "M0132-D08 (Fab, V domains shown) VH: EVQLLESGGGLVQPGGSLRLSCAASGFTFSHYLMYWVRQAPGKGLEWVSWIGPSGGHTMYADSVKGRFTISRDNSKNTLYLQMNSLRAEDTAVYYCARLQQGLDYWGQGTLVTVSS VL: DIQMTQSPSTLSASVGDRVTITCRASQSISNWLAWYQQKPGKAPKLLIYMASTLESGVPSRFSGSGSGTEFTLTISSLQPADFATYYCQQYNSYSVTFGGGTKVEIKR"
  kon: "195000 M⁻¹ s⁻¹"
- BINDER: "M0129-B09 (Fab, V domains shown) VH: EVQLLESGGGLVQPGGSLRLSCAASGFTFSRYWMHWVRQAPGKGLEWVSSIGPSGGVTKYADSVKGRFTISRDNSKNTLYLQMNSLRAEDTAVYYCARHGSWGGMDVWGQGTTVTVSS VL: DIQMTQSPSFLSASVGDRVTITCRASQGISSYLAWYQQKPGKAPKLLIYAASTLQSGVPSRFSGSGSGTEFTLTISSLQPEDFATYYCQQLNSYPRTFGQGTKVEIKR"
  kon: "1.73e+06 M⁻¹ s⁻¹"
- BINDER: "M0098-E01 (Fab, V domains shown) VH: EVQLLESGGGLVQPGGSLRLSCAASGFTFSMYGMTWVRQAPGKGLEWVSGISPSGGRTYYADSVKGRFTISRDNSKNTLYLQMNSLRAEDTAVYYCAKHRRDYVWWTYGMDVWGQGTTVTVSS VL: DIQMTQSPATLSLSPGERATLSCRASQSVSGFLAWYQQKPGQAPRLLIYDASNRATGIPARFSGSGSGTDFTLTITRLEPEDFAVYYCQQYGDSSPITFGPGTRLEIKR"
  kon: "148000 M⁻¹ s⁻¹"
- BINDER: "M0138-B06 (Fab, V domains shown) VH: EVQLLESGGGLVQPGGSLRLSCAASGFTFSPYTMSWVRQAPGKGLEWVSGIYPSGGETWYADSVKGRFTISRDNSKNTLYLQMNSLRAEDTAVYYCAKNINLRYDILTGYFDFWGQGTMVTVSS VL: DIQMTQSPSSVSASVGDRVTITCRASQGISSWLAWYQQKPGKAPKLLIYAASSLQSGVPSRFSGSGSGTDFTLTISSLQPEDFATYYCQQANSFPLTFGGGTKVEIKR"
  kon: "66400 M⁻¹ s⁻¹"
- BINDER: "M0136-E12 (Fab, V domains shown) VH: EVQLLESGGGLVQPGGSLRLSCAASGFTFSNYSMQWVRQAPGKGLEWVSSIGPSGGRTWYADSVKGRFTISRDNSKNTLYLQMNSLRAEDTAVYYCARVGVWYGMDVWGQGTTVTVSS VL: DIQMTQSPSSLSASVGDRVTITCRASHVINIDLGWYQQKPGKAPKLLIYGASHLQRGVPSRFSGSGSGTVFTLTISGLQPEDFATYYCLQDSFYPRTFGQGTRLEIKR"
  kon: "481000 M⁻¹ s⁻¹"
- BINDER: "M0131-B05 (Fab, V domains shown) VH: EVQLLESGGGLVQPGGSLRLSCAASGFTFSHYVMSWVRQAPGKGLEWVSYIYPSGGKTHYADSVKGRFTISRDNSKNTLYLQMNSLRAEDTAVYYCARVGVWYGMDVWGQGTTVTVSS VL: AQYELTQPASVSGSPGQSITISCTGTSSDIGAYNYVSWYQQHPGKAPKLMIYDVSNRPSGVSNRFSGSKSGNTASLTISGLQAEDEADYYCSSYRSSSLMFGGGTKLTVLG"
  kon: "255000 M⁻¹ s⁻¹"
